# Test system: human Retinoid X Receptor beta (RXRb), RXRB (gene 6257)
# Measurement notes: ATG_RXRb_TRANS: Attagene TRANS-FACTORIAL HepG2 Assay for human Retinoid X Receptor beta (RXRb) (AID 2283013)
Results filed as inconclusive are left out. Calls of active or inactive are those of the source. How the source made its calls: active means hit-call score of the fitted dose curve at least 0.9, where 1 is the maximum; inconclusive means response in the unintended direction; inactive means score below 0.9.
Result category, one only: yes (1) (active), no (0) (inactive)

// known answers, use as guide
• Cc1ccc2ncccc2c1 = no (0)
• Cc1c(C(=O)O)c(O)cc2c1C(=O)c1c(O)c([C@@H]3O[C@H](CO)[C@@H](O)[C@H](O)[C@H]3O)c(O)c(O)c1C2=O = no (0)
• CCOC(=O)C(C)(C)Oc1ccc(Cl)cc1 = no (0)

Query block: So what was the verdict on "Cc1cc(NC(=O)C(=O)O)cc(C)c1Oc1ccc(O)c2c1CCC2" in this test?
Result block: no (0)

Query block: So what was the verdict on "CC(=O)OCCOCCOCCOC(C)=O" in this test?
Result block: no (0)

Query block: So what was the verdict on "Cc1cc(=O)[nH]c(=S)[nH]1" in this test?
Result block: no (0)

Query block: So what was the verdict on "O=C(O)CCCCC(=O)O" in this test?
Result block: no (0)

Query block: So what was the verdict on "O=c1[nH]cc(F)c(=O)[nH]1" in this test?
Result block: no (0)

Query block: So what was the verdict on CC(CO)OC(C)CO (configuration not stated) (tested in a mixture with another compound) in this test?
Result block: yes (1)

Query block: So what was the verdict on "CCCCCCCC=O" in this test?
Result block: no (0)

Query block: So what was the verdict on "Nc1ccc2c(c1)C(=O)c1ccccc1C2=O" in this test?
Result block: no (0)

Query block: So what was the verdict on "Oc1ccc2ccccc2c1N=Nc1ccccc1" in this test?
Result block: yes (1)

Query block: So what was the verdict on "CCCCN(CCCC)CCCC" in this test?
Result block: no (0)

Query block: So what was the verdict on "CNC(=O)[C@H]1O[C@@H](n2cnc3c(NCc4cc(Cl)ccc4OCc4cc(C)no4)ncnc32)[C@H](O)[C@@H]1N" in this test?
Result block: no (0)

Query block: So what was the verdict on "Cc1oc(-c2ccccc2)nc1CCOc1cccc2c1ccn2CCC(=O)O" in this test?
Result block: yes (1)

Query block: So what was the verdict on "CC(=O)OC/C=C(\C)CCC=C(C)C" in this test?
Result block: no (0)

Query block: So what was the verdict on "C[Si]1(C)O[Si](C)(C)O[Si](C)(C)O[Si](C)(C)O1" in this test?
Result block: yes (1)

Query block: So what was the verdict on CC(=O)C(C)=CC1C(C)=CCCC1(C)C (configuration not stated) in this test?
Result block: yes (1)

Query block: So what was the verdict on "CCNc1cccc(C)c1" in this test?
Result block: no (0)

Query block: So what was the verdict on "CCCCCCCCCCCCCO" in this test?
Result block: yes (1)

Query block: So what was the verdict on "NS(=O)(=O)c1cc2c(cc1Cl)NCNS2(=O)=O" in this test?
Result block: no (0)

Query block: So what was the verdict on "Nc1nc(N)c2nc(CNc3ccc(C(=O)N[C@@H](CCC(=O)O)C(=O)O)cc3)cnc2n1" in this test?
Result block: no (0)

Query block: So what was the verdict on "CN1CCCC1=O" in this test?
Result block: yes (1)

Query block: So what was the verdict on CCCCC(CC)COC(=O)CC(C(=O)OCC(CC)CCCC)S(=O)(=O)O (configuration not stated) in this test?
Result block: no (0)

----------
# Read-out: urokinase plasminogen activator (uPA), PLAU (gene 5328)
# Measurement notes: BSK_BE3C_uPA: BioMAP Diversity Plus: BE3C Assay for urokinase plasminogen activator (uPA) Biomarker Activity (AID 2283038)
# Condition parameters: primary human bronchial epithelial cells; actives raise or lower the signal
The source made the active and inactive calls. How the source made its calls: active means hit-call score of the fitted dose curve at least 0.9, where 1 is the maximum; inactive means score below 0.9.
Result category, one only: t for active, f for inactive

// known answers, use as guide
• Nc1nc(N)c2nc(CNc3ccc(C(=O)N[C@@H](CCC(=O)O)C(=O)O)cc3)cnc2n1 = f
• CC1(C)NC(=O)NC1=O = f
• CN1CCN(Cc2cc(-c3ccc4[nH]c(=O)oc4c3)co2)[C@@H](c2ccc(F)cc2)C1 = f
• CNC(=O)[C@H]1O[C@@H](n2cnc3c(NCc4cc(Cl)ccc4OCc4cc(C)no4)ncnc32)[C@H](O)[C@@H]1N = f

Query block: So what was the verdict on "CC=Cc1ccc(O)c(OC)c1" in this test?
Result block: f

Query block: So what was the verdict on "Nc1ccc(S(=O)(=O)c2ccc(N)cc2)cc1" in this test?
Result block: f

Query block: So what was the verdict on CC(CO)OC(C)CO (configuration not stated) (tested in a mixture with another compound) in this test?
Result block: f

Query block: So what was the verdict on "O=C(N[C@@H](Cc1ccccc1)[C@@H](O)C(=O)N1C[C@@H](O)[C@@H](O)C1)c1cc2cc(Cl)ccc2[nH]1" in this test?
Result block: f

Query block: So what was the verdict on "C[Si]1(C)O[Si](C)(C)O[Si](C)(C)O[Si](C)(C)O1" in this test?
Result block: f

Query block: So what was the verdict on "CCCCCCOCCO" in this test?
Result block: f

Query block: So what was the verdict on "Oc1ccc2ccccc2c1N=Nc1ccccc1" in this test?
Result block: t

Query block: So what was the verdict on "Nc1ccccc1N" in this test?
Result block: f

Query block: So what was the verdict on "CC(=O)Oc1ccccc1C(=O)O" in this test?
Result block: f

----------
# Measurement notes: ACEA_AR_agonist_AUC_viability: ACEA Biosciences xCELLigence Real-Time Cell Analysis on Androgen Receptor Agonism for Viability (AID 2283775)
# Description: ACEA_AR_agonist is a cell-based, single-readout assay that uses 22Rv1, a human prostate cancer cell line, with measurements taken at 80 hours after chemical dosing in a 384-well plate, although TO5 and TO6 (mc0.srcf) used a 96-well plate. Differences in plate size can be ignored given data normalization.ACEA_AR_80hr is one of two assay component(s) measured or calculated from the ACEA_AR assay. […]
Inconclusive results are not listed. Active and inactive are the calls of the source. The calls were made as follows: active = hit-call score of the fitted dose curve at least 0.9, where 1 is the maximum; inconclusive = response in the unintended direction; inactive = score below 0.9.
Result category, one only: true (1) for active, false (0) for inactive

// known answers, use as guide
- CCCCc1ccc2c(n1)[C@@H](c1ccc(OC)cc1C[C@H](C)C(=O)O)[C@H](C(=O)O)[C@H]2c1ccc2c(c1)OCO2: false (0)
- Cc1ccc(C)c(C)c1: false (0)
- CC(=O)C(C)=CC1C(C)=CCCC1(C)C (stereo unspecified): false (0)
- COc1ccc(S(=O)(=O)N2C(=O)[C@@](c3ccccc3OC)(N3C[C@H](O)C[C@H]3C(=O)N(C)C)c3cc(Cl)ccc32)c(OC)c1: true (1)
- CC(=O)OC/C=C(\C)CCC=C(C)C: false (0)

Query block: So what was the verdict on "COc1ccc2c(c1)c(CC(=O)O)c(C)n2C(=O)c1ccc(Cl)cc1" in this test?
Result block: true (1)

Query block: So what was the verdict on "O=c1c(O)c(-c2ccc(O)c(O)c2)oc2cc(O)cc(O)c12" in this test?
Result block: true (1)

Query block: So what was the verdict on "NS(=O)(=O)c1cc2c(cc1Cl)NCNS2(=O)=O" in this test?
Result block: false (0)

Query block: So what was the verdict on "CCCCCCCC=O" in this test?
Result block: false (0)

Query block: So what was the verdict on "C1CCC(SSC2CCCCC2)CC1" in this test?
Result block: true (1)

Query block: So what was the verdict on "COc1cc(/C=C/C(=O)CC(=O)/C=C/c2ccc(O)c(OC)c2)ccc1O" in this test?
Result block: true (1)

----------
# Measurement notes: BSK_4H_Eotaxin3: BioMAP Diversity Plus: 4H Assay for Eotaxin 3 Biomarker Activity (AID 2283000)
# Condition parameters: primary human endothelial cells (HUVEC); actives raise or lower the signal
Active and inactive are the calls of the source. How the source made its calls: active means hit-call score of the fitted dose curve at least 0.9, where 1 is the maximum; inactive means score below 0.9.
Result category, one only: active, inactive

// known answers, use as guide
* Cc1cc(NC(=O)C(=O)O)cc(C)c1Oc1ccc(O)c2c1CCC2 | inactive
* O=C(O)Cc1ccccc1Nc1c(Cl)cccc1Cl | inactive
* C1CCC(SSC2CCCCC2)CC1 | active
* Cc1ccc(C(C)C)c(O)c1 | inactive
* Cc1nc(C)nc(N2C[C@@H](C)N(c3ccnc([C@@H](C)O)n3)[C@@H](C)C2)n1 | inactive
* CCCCCCCCCCCC(=O)OC | inactive
* NC(=O)Cn1c(=O)cc(CCN2CCN(c3nccc4sccc34)CC2)c2ccc(F)cc21 | inactive
* CCCCCCCCCCO | inactive

Query block: So what was the verdict on "CCCCc1ccc2c(n1)[C@@H](c1ccc(OC)cc1C[C@H](C)C(=O)O)[C@H](C(=O)O)[C@H]2c1ccc2c(c1)OCO2" in this test?
Result block: inactive

Query block: So what was the verdict on "CCCCCCCCCCCCCO" in this test?
Result block: active

Query block: So what was the verdict on "CN1CCCC1=O" in this test?
Result block: inactive

Query block: So what was the verdict on "Clc1cc(Cl)c(Cl)cc1Cl" in this test?
Result block: inactive

Query block: So what was the verdict on "Cc1ccc(N(C)C)cc1" in this test?
Result block: inactive
